experiment: Pharmacokinetic (PK) studies in Balb/c mouse
Type: in vivo
condition summary: female, Balb/c, mouse, in vivo, po, 10 mg/kg
Method: Test Example 7: Pharmacokinetic (PK) Studies in Balb/c Mouse The compound of Example 12, Control Compound 1, Control Compound 2, and TNO-155 were administered to female Balb/c mice by intravenous injection (IV) and gavage (PO) respectively to estimate the pharmacokinetic properties. Dosing amounts for IV and PO routes were 1 mg/kg and 10 mg/kg, respectively. The solvent for IV route was 5% DMSO+5% Solutol+90% Saline, and the solvent for PO route was 0.5% MC (sodium methylcellulose). […]
property measured: half-life (h)

molecule | output unit | recorded result
C[C@@H]1OCC2(CCN(c3ncc(Sc4ccnc(N5CC(O)C5)c4Cl)nc3CO)CC2)[C@@H]1N [Control Compound 1] | h | 4.61
Cc1nc(N2CCC3(CC2)CO[C@@H](C)[C@H]3N)c(CO)nc1Sc1ccnc(N)c1Cl [Control Compound 2] | h | 5.08

###

experiment: Pharmacokinetic (PK) studies in Balb/c mouse
Type: in vivo
condition summary: female, Balb/c, mouse, in vivo, iv, 1 mg/kg
property measured: clearance (mL/min/kg)

A: Cc1nc(N2CCC3(CC2)CO[C@@H](C)[C@H]3N)c(CO)nc1Sc1ccnc(N)c1Cl [Control Compound 2]
B: C[C@@H]1OCC2(CCN(c3ncc(Sc4ccnc(N5CC(O)C5)c4Cl)nc3CO)CC2)[C@@H]1N [Control Compound 1]
Dear colleague, could you let me know whether A or B has the lower recorded clearance? Thanks. Refer to your chosen item by its label in the answer.
B
(B: 7.21 mL/min/kg, A: 23.2 mL/min/kg)

###

experiment: Pharmacokinetic (PK) studies in SD rat
Format: in vivo
condition summary: rat; male SD rats, PO, 5 mg/kg, plasma
property measured: Cmax (ng/mL)
Just the number please, in ng/mL, no unit attached.

# Cmax (molecule: Cc1nc(N2CCC3(CC2)CO[C@@H](C)[C@H]3N)c(CO)nc1Sc1ccnc(N)c1Cl [Control Compound 2] ) is 363

###

experiment: Pharmacokinetic (PK) studies in Balb/c mouse
Format: in vivo
condition summary: mouse, in vivo; female Balb/c mice, IV, 1 mg/kg, blood (TNO-155: plasma); read-out: Cl
property measured: clearance (mL/min/kg)
Just the number please, in mL/min/kg, no unit attached.

# clearance (compound: C[C@@H]1OCC2(CCN(c3ncc(Sc4ccnc(N5CC(C(C)(C)O)C5)c4Cl)nc3CO)CC2)[C@@H]1N ) is 6.23

###

experiment: Pharmacokinetic (PK) studies in Balb/c mouse
Type: in vivo
condition summary: mouse, whole blood (TNO-155: plasma); female Balb/c mice, PO, 10 mg/kg, blood (TNO-155: plasma); read-out: AUClast
property measured: AUC(0-t) (ng·h/mL)
Just the number please, in ng·h/mL, no unit attached.

# AUC(0-t) (compound: C[C@@H]1OCC2(CCN(c3cnc(Sc4ccnc(N)c4Cl)c(N)n3)CC2)[C@@H]1N [TNO-155, reference compound] ) is 7910

###

experiment: Pharmacokinetic (PK) studies in SD rat
Assay type: in vivo
condition summary: rat, in vivo; male SD rats, PO, 5 mg/kg, plasma
property measured: Cmax (ng/mL)
Just the number please, in ng/mL, no unit attached.

# Cmax (compound: C[C@@H]1OCC2(CCN(c3ncc(Sc4ccnc(N5CC(C(C)(C)O)C5)c4Cl)nc3CO)CC2)[C@@H]1N [Example 12] ) is 1110

###

system: recombinant full-length human PTPN11 (SHP2) (Homo sapiens)
Construct: recombinant full-length human PTPN11 (SHP2), active (SignalChem); purchased SignalChem
experiment: Inhibition of in vitro enzyme activity of SHP2 (DiFMUP fluorescence endpoint assay)
Type: biochemical
condition summary: SHP2 0.5 nM, DiFMUP 200 μM, IRS-1 0.5 μM; 60 min incubation
property measured: IC50 (nM)
Just the number please, in nM, no unit attached.

Example results:
compound | system | recorded result
CC(C)(O)C1CN(c2nccc(Sc3cnc(N4CCC5(CC4)COC[C@H]5N)c(CO)n3)c2Cl)C1 [Example 13] | recombinant full-length human PTPN11 (SHP2) (Homo sapiens) | 4.9
C[C@@H]1OCC2(CCN(c3ncc(Sc4ccnc(N5CCCC5CC(N)=O)c4Cl)nc3CO)CC2)[C@@H]1N (stereo partly shown) [Example 19] | recombinant full-length human PTPN11 (SHP2) (Homo sapiens) | 1.5
C[C@@H]1OCC2(CCN(c3ncc(Sc4ccnc(N5CC(C(C)(C)O)C5)c4F)nc3CO)CC2)[C@@H]1N [Example 40] | recombinant full-length human PTPN11 (SHP2) (Homo sapiens) | 4.13
C[C@@H]1OCC2(CCN(c3ncc(Sc4ccnc(N5CC(CC#N)C5)c4Cl)nc3CO)CC2)[C@@H]1N [Example 5] | recombinant full-length human PTPN11 (SHP2) (Homo sapiens) | 1.22
CC(C)(O)C1CN(c2nccc(Sc3cnc(N4CCC5(CC4)CCC4(CC4)[C@H]5N)c(CO)n3)c2Cl)C1 [Example 49] | recombinant full-length human PTPN11 (SHP2) (Homo sapiens) | 2.3
C[C@@H]1OCC2(CCN(c3ncc(Sc4ccnc(N5CCCC5CC#N)c4Cl)nc3CO)CC2)[C@@H]1N (stereo partly shown) [Example 18] | recombinant full-length human PTPN11 (SHP2) (Homo sapiens) | 1.9

# IC50 (compound: C[C@@H]1OCC2(CCN(c3ncc(Sc4ccnc(N5CC(C)(CS(C)(=O)=O)C5)c4Cl)nc3CO)CC2)[C@@H]1N [Example 29] ) is 1.68

###

system: recombinant full-length human PTPN11 (SHP2) (Homo sapiens)
Construct: recombinant full-length human PTPN11 (SHP2), active (SignalChem); purchased SignalChem
Sequence (Q06124 1-593): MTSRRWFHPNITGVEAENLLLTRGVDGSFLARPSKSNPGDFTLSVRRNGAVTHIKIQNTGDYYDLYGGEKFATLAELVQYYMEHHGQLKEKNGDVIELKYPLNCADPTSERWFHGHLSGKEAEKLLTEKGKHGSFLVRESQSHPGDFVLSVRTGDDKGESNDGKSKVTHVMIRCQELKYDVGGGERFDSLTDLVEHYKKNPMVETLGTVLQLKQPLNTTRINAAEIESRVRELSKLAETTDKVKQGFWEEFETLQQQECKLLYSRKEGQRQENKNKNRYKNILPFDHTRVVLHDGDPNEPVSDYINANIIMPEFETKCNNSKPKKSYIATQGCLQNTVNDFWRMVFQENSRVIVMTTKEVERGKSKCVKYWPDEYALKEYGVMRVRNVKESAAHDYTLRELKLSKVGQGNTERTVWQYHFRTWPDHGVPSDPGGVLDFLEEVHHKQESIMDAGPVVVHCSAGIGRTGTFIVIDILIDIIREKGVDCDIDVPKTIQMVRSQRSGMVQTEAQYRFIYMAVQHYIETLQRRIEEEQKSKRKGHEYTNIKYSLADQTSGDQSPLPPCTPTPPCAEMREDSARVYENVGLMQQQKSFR
experiment: Inhibition of in vitro enzyme activity of SHP2 (DiFMUP fluorescence endpoint assay)
Assay type: biochemical
condition summary: SHP2 0.5 nM, DiFMUP 200 μM, IRS-1 0.5 μM; 60 min incubation
property measured: IC50 (nM)

compound | output unit | IC50
CC(N)C1(C)CCN(c2ncc(Sc3ccnc(N4CCCC4CO)c3Cl)nc2CO)CC1 (stereo not shown) [Example 3] | nM | 3.48
C[C@@H]1OCC2(CCN(c3ncc(Sc4ccnc(N5CC(C(C)(C)C#N)C5)c4Cl)nc3CO)CC2)[C@@H]1N [Example 30] | nM | 4
Cc1nc(N2CCC3(CC2)CO[C@@H](C)[C@H]3N)c(CO)nc1Sc1ccnc(N2CC(C(C)(C)O)C2)c1Cl [Example 32] | nM | 3.7
C[C@@H]1OCC2(CCN(c3ncc(Sc4ccnc(N5CC(CS(C)(=O)=O)C5)c4Cl)nc3CO)CC2)[C@@H]1N [Example 26] | nM | 0.7

###

experiment: Pharmacokinetic (PK) studies in SD rat
Type: in vivo
condition summary: rat, in vivo; male SD rats, IV, 1 mg/kg, plasma
property measured: Cmax (ng/mL)
Just the number please, in ng/mL, no unit attached.

# Cmax (compound: C[C@@H]1OCC2(CCN(c3ncc(Sc4ccnc(N5CC(C(C)(C)O)C5)c4Cl)nc3CO)CC2)[C@@H]1N [Example 12] ) is 373

###

experiment: Pharmacokinetic (PK) studies in Balb/c mouse
Type: in vivo
condition summary: female, Balb/c, mouse, in vivo, po, 10 mg/kg
property measured: AUC(0-t) (ng·h/mL)

P: Cc1nc(N2CCC3(CC2)CO[C@@H](C)[C@H]3N)c(CO)nc1Sc1ccnc(N)c1Cl [Control Compound 2]
Q: C[C@@H]1OCC2(CCN(c3ncc(Sc4ccnc(N5CC(O)C5)c4Cl)nc3CO)CC2)[C@@H]1N [Control Compound 1]
I need your help: which of the pair P , Q has higher AUC(0-t)? Refer to your chosen item by its label in the answer.
Q

Data origin, for the record: patent US20230212180A1
